Test target: MMP-2 (Homo sapiens)
Construct: purchased Abchem (so in the source)
Sequence (P08253 110-660): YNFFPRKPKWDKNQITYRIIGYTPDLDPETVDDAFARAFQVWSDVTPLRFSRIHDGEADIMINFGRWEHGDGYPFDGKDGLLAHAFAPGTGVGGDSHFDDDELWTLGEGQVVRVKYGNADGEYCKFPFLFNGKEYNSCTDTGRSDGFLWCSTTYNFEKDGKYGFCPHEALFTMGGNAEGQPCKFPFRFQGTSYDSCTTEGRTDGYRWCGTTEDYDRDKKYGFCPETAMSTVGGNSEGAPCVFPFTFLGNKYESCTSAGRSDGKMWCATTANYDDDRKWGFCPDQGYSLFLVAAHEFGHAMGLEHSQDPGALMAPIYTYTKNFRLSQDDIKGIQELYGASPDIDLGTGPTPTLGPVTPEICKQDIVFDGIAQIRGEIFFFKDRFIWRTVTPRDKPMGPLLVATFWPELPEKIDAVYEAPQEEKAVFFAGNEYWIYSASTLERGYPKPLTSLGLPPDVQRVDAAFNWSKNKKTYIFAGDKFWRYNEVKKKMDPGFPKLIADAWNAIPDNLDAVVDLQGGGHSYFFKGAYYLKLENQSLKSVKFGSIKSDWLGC
Experimental protocol: MMP2 Inhibitor Screening Assay Kit (ab139446), colorimetric thiopeptide substrate, OD412
Type: biochemical
Measurement conditions: inhibition; T-05~20 at 10 uM; read-out: MMP-2 (%) (inhibitory efficacy, high concentration)
A collection of compounds and their measured inhibition at 10 µM
Just the number in %, nothing appended.

Some solved entries appear below for comparison.
# Compound, Endpoint name, Display unit, Measurement
data = [
    ("CC(C)C(NS(=O)(=O)c1ccc(C(C)(C)C)cc1)C(=O)NO (centres unmarked) [T-18]", "inhibition at 10 µM", "%", 0),
    ("Cc1cc(C)c(S(=O)(=O)NC(C(=O)NO)C(C)C)c(C)c1 (centres unmarked) [T-20]", "inhibition at 10 µM", "%", 59.9),
    ("CC(C)CC(NS(=O)(=O)c1ccc(C(C)(C)C)cc1)C(=O)NO (centres unmarked) [T-13]", "inhibition at 10 µM", "%", 71.9),
    ("Cc1cc(C)c(S(=O)(=O)N2CCCCC2C(=O)NO)c(C)c1 (centres unmarked) [T-05]", "inhibition at 10 µM", "%", 15.8),
]

The record that follows has no inhibition at 10 µM shown yet.
Noted inhibition at 10 µM for CC(C)(C)c1ccc(S(=O)(=O)NC(Cc2ccccc2)C(=O)NO)cc1 (centres unmarked) [T-08] , tested on MMP-2 (Homo sapiens): 0
